# credit: paper PMC11019538

- Tested on: African green monkey kidney (Vero) cells
- protocol.description: MTT cytotoxicity, Vero cells
- Type: cell-based
- reported.conditions: Vero cells
measured.parameter: CC50

For record O=C(Cc1ccc(O)cc1)NCc1nc(-c2cccc(F)c2)c(-c2ccccn2)[nH]1 [GT-42] the listed CC50 is 13 µM

For record Oc1c(C(Nc2ccccc2)c2ccccc2)ccc2cccnc12 (centres unmarked) [GT-48] the listed CC50 is 4.5 µM

For record O=C(NCCN1CCOCC1)c1ccc2nc(-c3ccccc3)c(-c3ccccc3)nc2c1 [GT-36] the listed CC50 is 31 µM

For record CNc1cc(C#N)nc(-c2ccccc2)n1 [GT-28] the listed CC50 is > 100 µM

For record CC(N)c1ccc(-c2ccc(F)cc2)cc1 (centres unmarked) [GT-29] the listed CC50 is 21 µM

For record Cc1c(CCN)ccc2c1[nH]c1ccccc12 [GT-6] the listed CC50 is 42.6 µM

For record O=C(NCCc1ccccc1)c1cccnc1 [GT-13] the listed CC50 is > 100 µM

For record O=C(CCc1ccccc1)Nc1cccnc1 [GT-15] the listed CC50 is > 100 µM

For record NCc1cccc(Oc2ccccc2)c1 [GT-12] the listed CC50 is > 100 µM

For record NCc1ccc(F)c(COC2CCCC2)c1 [GT-22] the listed CC50 is 88.6 µM

For record Cc1nc2ccccc2nc1-c1sc2ncccc2c1O [GT-37] the listed CC50 is 19 µM

* * *

- protocol.description: MTT cytotoxicity, PBM cells
- Type: cell-based, human
- reported.conditions: human
measured.parameter: CC50

For record C[C@@H]1C[C@@H]([C@H](O)CC2CC(=O)NC(=O)C2)C(=O)[C@@H](C)C1 [Cycloheximide, reference compound] the listed CC50 is 900 nM

* * *

- protocol.description: MTT cytotoxicity, Vero cells
- Assay type: cell-based, African green monkey
- reported.conditions: African green monkey, Vero cells (kidney)
Please provide measured CC50 for the entries that follow.
API: value field is a number in µM; no unit string.

For record O=C(NCc1ccc(-c2cccnc2)nc1)c1ccc2nccnc2c1 the listed CC50 is 53

For record NCCCC(=O)NCc1nc(-c2cccc(F)c2)c(-c2ccccn2)[nH]1 the listed CC50 is 66

For record CCOC(=O)c1cc(-c2cc(C(=O)OCC)c3ccccc3n2)nc2ccccc12 the listed CC50 is 76

For record O=C(OCc1ccc(-c2cnc3ccccc3n2)cc1)c1cccs1 the listed CC50 is 44

* * *

- protocol.description: MTT cytotoxicity, four cell lines taken together
- Assay type: cell-based
- reported.conditions: human, African green monkey; PBM, CEM, Vero, HepG2; read-out: CC50 in all cell lines
measured.parameter: CC50

For record Cc1cc2nc(-c3ccccn3)c(-c3ccccn3)nc2cc1C the listed CC50 is > 100 µM

* * *

- tested.on: Cp149 (Hepatitis B virus genotype D subtype adw, UniProt P03147)
- Construct: The N-terminal domain of Cp (Cp149) is sufficient for forming regular capsids; made in house; host or cells: E. coli BL21(DE3)
- Sequence (P03147 1-149): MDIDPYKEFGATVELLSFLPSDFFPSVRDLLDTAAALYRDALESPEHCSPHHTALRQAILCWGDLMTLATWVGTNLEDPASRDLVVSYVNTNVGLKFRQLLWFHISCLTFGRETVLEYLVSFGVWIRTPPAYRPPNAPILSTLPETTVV
- protocol.description: Tryptophan fluorescence titration
- Type: binding
- reported.conditions: one site specific binding model, Table S7; read-out: KD
- Experimental: Each of the compounds was titrated into 100 μL of the protein solution to final concentrations of 0, 5, 10, 20, 50, and 100 μM in a clear bottom 96-well plate. […] Tryptophan fluorescence levels were measured by exciting the samples at 285 nm and measuring the emission at 340 nm with the Varioskan Flash (Thermo Fisher) plate reader. […] Fluorescence quenching was calculated by taking the difference of net fluorescence levels of each concentration and of the 0 μM sample. […]
measured.parameter: pKd
Scale explanation: pKd corresponds to minus log10 of a concentration expressed in moles per litre.

For record O=C(OCc1ccc(-c2cnc3ccccc3n2)cc1)c1cccs1 [GT-32] the listed pKd is 3.91

* * *

- protocol.description: MTT cytotoxicity, HepG2 cells
- Format: cell-based, human
- reported.conditions: human, HepG2 cells (liver carcinoma)
measured.parameter: CC50 (µM)
API: value field is a number in µM; no unit string.

For record O=C(NCc1ccc(-c2cccnc2)nc1)c1ccc2nccnc2c1 the listed CC50 is 82

For record CCOC(=O)c1cc(-c2cc(C(=O)OCC)c3ccccc3n2)nc2ccccc12 the listed CC50 is 86

For record O=C(OCc1ccc(-c2cnc3ccccc3n2)cc1)c1cccs1 the listed CC50 is 59

* * *

- Tested on: African green monkey kidney (Vero) cells
- protocol.description: MTT cytotoxicity, Vero cells
- Format: cell-based
- reported.conditions: Vero cells
measured.parameter: CC50 (µM)
API: value field is a number in µM; no unit string.

For record CCC(CO)Nc1nc2ccc(Cl)cc2c2ccccc12 (stereo not drawn) the listed CC50 is 14.4

For record OC(Cn1cnc(-c2ccccc2)c1-c1cc2ccccc2[nH]1)c1cccnc1 (stereo not drawn) the listed CC50 is 18

For record Cc1ccc(-c2nc(CNC(=O)C3CCOC3)[nH]c2-c2ccccn2)cc1 (stereo not drawn) the listed CC50 is 19

* * *

Please provide measured % abnormal capsids, Trial 1 for the entries that follow.
- tested.on: Cp149 capsid assembly (Hepatitis B virus genotype D subtype adw, UniProt P03147)
- Construct: The N-terminal domain of Cp (Cp149) is sufficient for forming regular capsids; made in house; host or cells: E. coli BL21(DE3)
- Sequence (P03147 1-149): as above
- protocol.description: Transmission electron microscopy of assembled Cp149 products
- Format: biochemical
- reported.conditions: 20 μM Cp149, 40 μM compound, 500 mM NaCl
API: value field is a number in %; no unit string.

For record CCn1ccnc1-c1c(-c2ccccc2)ncn1CCCc1cccnc1 [GT-39] the listed % abnormal capsids, Trial 1 is 45

For record NCCCC(=O)NCc1nc(-c2cccc(F)c2)c(-c2ccccn2)[nH]1 [GT-45] the listed % abnormal capsids, Trial 1 is 40

For record Cc1ccc2[nH]c(CCNc3nccc(-c4ccccn4)n3)nc2c1C [GT-47] the listed % abnormal capsids, Trial 1 is 28

For record O=C(OCc1ccc(-c2cnc3ccccc3n2)cc1)c1cccs1 [GT-32] the listed % abnormal capsids, Trial 1 is 76

For record Cc1nc(-c2c(-c3ccccc3)ncn2Cc2cccc3[nH]ccc23)c[nH]1 [GT-40] the listed % abnormal capsids, Trial 1 is 8

For record CCOC(=O)c1cc(-c2cc(C(=O)OCC)c3ccccc3n2)nc2ccccc12 [GT-33] the listed % abnormal capsids, Trial 1 is 31

* * *

- Tested on: T lymphoblast CEM-CCRF (CEM) cells
- protocol.description: MTT cytotoxicity, CEM cells
- Format: cell-based, human
Please provide measured CC50 for the entries that follow.
API: value field is a number in µM; no unit string.

For record OC(Cn1cnc(-c2ccccc2)c1-c1cc2ccccc2[nH]1)c1cccnc1 (stereo not drawn) the listed CC50 is 12

For record CCC(CO)Nc1nc2ccc(Cl)cc2c2ccccc12 (stereo not drawn) the listed CC50 is 15.2

For record CC(CC(C#N)(c1ccccc1)c1ccccc1)N1CCCCC1 (stereo not drawn) the listed CC50 is 16.1

* * *

- protocol.description: in vitro
measured.parameter: IC50

For record Cc1ccc2[nH]c(CCNc3nccc(-c4ccccn4)n3)nc2c1C [GT-47] the listed IC50 is > 200 µM

For record CCn1ccnc1-c1c(-c2ccccc2)ncn1CCCc1cccnc1 [GT-39] the listed IC50 is > 200 µM

For record O=C(NCc1ccc(-c2cccnc2)nc1)c1ccc2nccnc2c1 [GT-46] the listed IC50 is > 200 µM

* * *

- Tested on: African green monkey kidney (Vero) cells
- protocol.description: MTT cytotoxicity, Vero cells
- Type: cell-based
- reported.conditions: Vero cells, 100 µM
measured.parameter: % cytotoxicity (MTT) at 100 µM (%)
API: value field is a number in %; no unit string.

For record CCn1ccnc1-c1c(-c2ccccc2)ncn1CCCc1cccnc1 [GT-39] the listed % cytotoxicity (MTT) at 100 µM is 47

For record Cc1nc(-c2c(-c3ccccc3)ncn2Cc2cccc3[nH]ccc23)c[nH]1 [GT-40] the listed % cytotoxicity (MTT) at 100 µM is 39

For record CC(=O)N1CCC(NCc2nc(-c3ccc(C)cc3)c(-c3ccccn3)[nH]2)CC1 [GT-44] the listed % cytotoxicity (MTT) at 100 µM is 54

For record Cc1ccc2[nH]c(CCNc3nccc(-c4ccccn4)n3)nc2c1C [GT-47] the listed % cytotoxicity (MTT) at 100 µM is 31

* * *

- tested.on: Cp149 (Hepatitis B virus genotype D subtype adw, UniProt P03147)
- Construct: The N-terminal domain of Cp (Cp149) is sufficient for forming regular capsids; made in house; host or cells: E. coli BL21(DE3)
- protocol.description: Tryptophan fluorescence titration
- Type: binding
- reported.conditions: 20 μM Cp149, single-site fit; read-out: dissociation constant (KD), estimated
measured.parameter: Kd (µM)
API: value field is a number in µM; no unit string.

For record O=C(OCc1ccc(-c2cnc3ccccc3n2)cc1)c1cccs1 the listed Kd is 124
